Assay: Rat PK of Compound 1, IV and oral suspension (Table 1)
Design: species or system rats
Conditions: in vivo, po, rats, suspension in 0.5% methylcellulose, read-out: oral bioavailability
Excerpt: The intravenous formulation uses cyclodextrin (CD) to increase solubility. However, a drug loading of <10% is not suitable for oral formulation. […]
readout_label: bioavailability

Quick one: bioavailability of "COc1cccc(CNc2ccc(S(=O)(=O)Nc3nc4ccccc4s3)cc2)c1O" ?
< 5%

---

Test: Rat PK of Compound 1, IV and oral suspension (Table 1)
Set-up: species or system rats
Details: in vivo, IV, 3 mg/kg
Text: The intravenous formulation uses cyclodextrin (CD) to increase solubility. However, a drug loading of <10% is not suitable for oral formulation. […]
readout_label: AUC(0-inf)
Numeric answer plus unit only.

Quick one: AUC(0-inf) of COc1cccc(CNc2ccc(S(=O)(=O)Nc3nc4ccccc4s3)cc2)c1O [Compound 1] ?
43.6 µg·h/mL

---

Assay: Solubility of Compound 1 in organic solvents relevant to spray drying (Table 3)
Assay type: physicochemical
Conditions: 85:10:5 tetrahydrofuran:ethanol:water, organic solvent or mixture; read-out: Solubility Concentration
readout_label: solubility (µg/mL)
Give the quantity in µg/mL, number only.

Quick one: solubility of COc1cccc(CNc2ccc(S(=O)(=O)Nc3nc4ccccc4s3)cc2)c1O [Compound 1] ?
10000

---

Assay: Rat PK of Compound 1, IV and oral suspension (Table 1)
Set-up: species or system rats
Conditions: in vivo, oral suspension, 3 mg/kg
readout_label: half-life
Numeric answer plus unit only.

Quick one: half-life of "COc1cccc(CNc2ccc(S(=O)(=O)Nc3nc4ccccc4s3)cc2)c1O" ?
1.82 h

---

Test: Solubility of Compound 1 in organic solvents relevant to spray drying (Table 3)
Assay type: physicochemical
Conditions: 50:45:5 tetrahydrofuran:acetone:water, organic solvent or mixture; read-out: Solubility Concentration
readout_label: solubility (µg/mL)
Give the quantity in µg/mL, number only.

Quick one: solubility of COc1cccc(CNc2ccc(S(=O)(=O)Nc3nc4ccccc4s3)cc2)c1O [Compound 1] ?
10000

---

Assay: Rat PK of Compound 1, IV and oral suspension (Table 1)
Parameters: species or system rats
Settings: in vivo, oral suspension, 3 mg/kg
readout_label: AUC(0-t) (ng·h/mL)
Give the quantity in ng·h/mL, number only.

Quick one: AUC(0-t) of COc1cccc(CNc2ccc(S(=O)(=O)Nc3nc4ccccc4s3)cc2)c1O [Compound 1] ?
203

---

Assay: Rat PK of Compound 1, IV and oral suspension (Table 1)
Design: species or system rats
Conditions: in vivo, IV, 30 mg/kg
readout_label: Tmax (min)
Give the quantity in min, number only.

Quick one: Tmax of COc1cccc(CNc2ccc(S(=O)(=O)Nc3nc4ccccc4s3)cc2)c1O [Compound 1] ?
4.98

---

Assay: Rat PK of Compound 1, IV and oral solution (Table 2)
Assay type: in vivo, rats
Details: in vivo, IV, 3 mg/Kg, read-out: Vss_obs
readout_label: Vd (L/kg)
Give the quantity in L/kg, number only.

Quick one: Vd of COc1cccc(CNc2ccc(S(=O)(=O)Nc3nc4ccccc4s3)cc2)c1O [Compound 1] ?
0.101

---

Test: Rat PK of Compound 1, IV and oral suspension (Table 1)
Parameters: species or system rats
Details: in vivo, oral suspension, 10 mg/kg
readout_label: Cmax (ng/mL)
Give the quantity in ng/mL, number only.

Quick one: Cmax of "COc1cccc(CNc2ccc(S(=O)(=O)Nc3nc4ccccc4s3)cc2)c1O" ?
71.3

---

Test: Rat PK of Compound 1, IV and oral solution (Table 2)
Assay type: in vivo, rats
Settings: in vivo, IV, 3 mg/Kg
readout_label: AUC(0-t) (ng·h/mL)
Give the quantity in ng·h/mL, number only.

Quick one: AUC(0-t) of COc1cccc(CNc2ccc(S(=O)(=O)Nc3nc4ccccc4s3)cc2)c1O [Compound 1] ?
50700

---

Assay: Rat PK of Compound 1, IV and oral suspension (Table 1)
Parameters: species or system rats
Conditions: in vivo, oral suspension, 30 mg/kg
readout_label: AUC(0-t) (ng·h/mL)
Give the quantity in ng·h/mL, number only.

Quick one: AUC(0-t) of COc1cccc(CNc2ccc(S(=O)(=O)Nc3nc4ccccc4s3)cc2)c1O [Compound 1] ?
737

---

Experiment: Rat PK of Compound 1, IV and oral suspension (Table 1)
Set-up: species or system rats
Conditions: in vivo, IV, 3 mg/kg
readout_label: half-life (h)
Give the quantity in h, number only.

Quick one: half-life of "COc1cccc(CNc2ccc(S(=O)(=O)Nc3nc4ccccc4s3)cc2)c1O" ?
2.58

---

Test: Rat PK of Compound 1, IV and oral suspension (Table 1)
Parameters: species or system rats
Conditions: in vivo, oral suspension, 3 mg/kg
readout_label: Tmax (h)
Give the quantity in h, number only.

Quick one: Tmax of "COc1cccc(CNc2ccc(S(=O)(=O)Nc3nc4ccccc4s3)cc2)c1O" ?
4

---

Experiment: Rat PK of Compound 1, IV and oral suspension (Table 1)
Set-up: species or system rats
Details: in vivo, IV, 30 mg/kg
readout_label: half-life (h)
Give the quantity in h, number only.

Quick one: half-life of "COc1cccc(CNc2ccc(S(=O)(=O)Nc3nc4ccccc4s3)cc2)c1O" ?
2.56

---

Assay: Rat PK of Compound 1, IV and oral suspension (Table 1)
Set-up: species or system rats
Settings: in vivo, oral suspension, 10 mg/kg
readout_label: AUC(0-t) (ng·h/mL)
Give the quantity in ng·h/mL, number only.

Quick one: AUC(0-t) of "COc1cccc(CNc2ccc(S(=O)(=O)Nc3nc4ccccc4s3)cc2)c1O" ?
399

---

Test: Solubility of Compound 1 in organic solvents relevant to spray drying (Table 3)
Type: physicochemical
Conditions: 50:50 acetone:methanol, organic solvent or mixture; read-out: Solubility Concentration
Protocol: THF was the most suitable solvent, and could be combined with other solvents such as acetone, ethanol and water to enable dissolution of the drug, polymer and additives in the formulation. Furthermore, given the anticipated dose of the product, maximizing the drug loading in the amorphous dispersion was essential. Solubility in organic solvents relevant to spray draying were conducted ([…]), showing that THF with EtOH in water was preferred (85/10/5).
readout_label: solubility

Quick one: solubility of COc1cccc(CNc2ccc(S(=O)(=O)Nc3nc4ccccc4s3)cc2)c1O [Compound 1] ?
< 2500 µg/mL

---

Test: Rat PK of Compound 1, IV and oral solution (Table 2)
Type: in vivo, rats
Conditions: in vivo, PO solution, 30 mg/Kg
readout_label: half-life (h)
Give the quantity in h, number only.

Quick one: half-life of "COc1cccc(CNc2ccc(S(=O)(=O)Nc3nc4ccccc4s3)cc2)c1O" ?
2.69

---

Test: Rat PK of Compound 1, IV and oral suspension (Table 1)
Parameters: species or system rats
Conditions: in vivo, oral suspension, 3 mg/kg
readout_label: AUC(0-inf)
Numeric answer plus unit only.

Quick one: AUC(0-inf) of COc1cccc(CNc2ccc(S(=O)(=O)Nc3nc4ccccc4s3)cc2)c1O [Compound 1] ?
237 ng·h/mL

---

Assay: Rat PK of Compound 1, IV and oral suspension (Table 1)
Design: species or system rats
Conditions: in vivo, IV, 3 mg/kg
Text: The intravenous formulation uses cyclodextrin (CD) to increase solubility. However, a drug loading of <10% is not suitable for oral formulation. […]
readout_label: Cmax (µg/mL)
Give the quantity in µg/mL, number only.

Quick one: Cmax of COc1cccc(CNc2ccc(S(=O)(=O)Nc3nc4ccccc4s3)cc2)c1O [Compound 1] ?
49.6

---

Experiment: Rat PK of Compound 1, IV and oral suspension (Table 1)
Set-up: species or system rats
Settings: in vivo, IV, 30 mg/kg
readout_label: AUC(0-t) (µg·h/mL)
Give the quantity in µg·h/mL, number only.

Quick one: AUC(0-t) of "COc1cccc(CNc2ccc(S(=O)(=O)Nc3nc4ccccc4s3)cc2)c1O" ?
213

---

Experiment: Oral bioavailability of Compound 1 suspension in mice
Conditions: mouse, in vivo, suspension in 0.5% methylcellulose
readout_label: bioavailability

Quick one: bioavailability of "COc1cccc(CNc2ccc(S(=O)(=O)Nc3nc4ccccc4s3)cc2)c1O" ?
< 5%

---

Assay: Rat PK of Compound 1, IV and oral suspension (Table 1)
Parameters: species or system rats
Conditions: in vivo, oral suspension, 10 mg/kg
readout_label: AUC(0-inf) (ng·h/mL)
Give the quantity in ng·h/mL, number only.

Quick one: AUC(0-inf) of COc1cccc(CNc2ccc(S(=O)(=O)Nc3nc4ccccc4s3)cc2)c1O [Compound 1] ?
478

---

Experiment: Solubility of Compound 1 in organic solvents relevant to spray drying (Table 3)
Assay type: physicochemical
Conditions: 50:50 methylene chloride:methanol, organic solvent or mixture; read-out: Solubility Concentration
Method: THF was the most suitable solvent, and could be combined with other solvents such as acetone, ethanol and water to enable dissolution of the drug, polymer and additives in the formulation. Furthermore, given the anticipated dose of the product, maximizing the drug loading in the amorphous dispersion was essential. Solubility in organic solvents relevant to spray draying were conducted ([…]), showing that THF with EtOH in water was preferred (85/10/5).
readout_label: solubility

Quick one: solubility of "COc1cccc(CNc2ccc(S(=O)(=O)Nc3nc4ccccc4s3)cc2)c1O" ?
< 2500 µg/mL
